study.system: human recombinant HDAC6 (Homo sapiens, UniProt Q9UBN7)
Construct: purchased Calbiochem Inc. 382180
Sequence (Q9UBN7 whole entry): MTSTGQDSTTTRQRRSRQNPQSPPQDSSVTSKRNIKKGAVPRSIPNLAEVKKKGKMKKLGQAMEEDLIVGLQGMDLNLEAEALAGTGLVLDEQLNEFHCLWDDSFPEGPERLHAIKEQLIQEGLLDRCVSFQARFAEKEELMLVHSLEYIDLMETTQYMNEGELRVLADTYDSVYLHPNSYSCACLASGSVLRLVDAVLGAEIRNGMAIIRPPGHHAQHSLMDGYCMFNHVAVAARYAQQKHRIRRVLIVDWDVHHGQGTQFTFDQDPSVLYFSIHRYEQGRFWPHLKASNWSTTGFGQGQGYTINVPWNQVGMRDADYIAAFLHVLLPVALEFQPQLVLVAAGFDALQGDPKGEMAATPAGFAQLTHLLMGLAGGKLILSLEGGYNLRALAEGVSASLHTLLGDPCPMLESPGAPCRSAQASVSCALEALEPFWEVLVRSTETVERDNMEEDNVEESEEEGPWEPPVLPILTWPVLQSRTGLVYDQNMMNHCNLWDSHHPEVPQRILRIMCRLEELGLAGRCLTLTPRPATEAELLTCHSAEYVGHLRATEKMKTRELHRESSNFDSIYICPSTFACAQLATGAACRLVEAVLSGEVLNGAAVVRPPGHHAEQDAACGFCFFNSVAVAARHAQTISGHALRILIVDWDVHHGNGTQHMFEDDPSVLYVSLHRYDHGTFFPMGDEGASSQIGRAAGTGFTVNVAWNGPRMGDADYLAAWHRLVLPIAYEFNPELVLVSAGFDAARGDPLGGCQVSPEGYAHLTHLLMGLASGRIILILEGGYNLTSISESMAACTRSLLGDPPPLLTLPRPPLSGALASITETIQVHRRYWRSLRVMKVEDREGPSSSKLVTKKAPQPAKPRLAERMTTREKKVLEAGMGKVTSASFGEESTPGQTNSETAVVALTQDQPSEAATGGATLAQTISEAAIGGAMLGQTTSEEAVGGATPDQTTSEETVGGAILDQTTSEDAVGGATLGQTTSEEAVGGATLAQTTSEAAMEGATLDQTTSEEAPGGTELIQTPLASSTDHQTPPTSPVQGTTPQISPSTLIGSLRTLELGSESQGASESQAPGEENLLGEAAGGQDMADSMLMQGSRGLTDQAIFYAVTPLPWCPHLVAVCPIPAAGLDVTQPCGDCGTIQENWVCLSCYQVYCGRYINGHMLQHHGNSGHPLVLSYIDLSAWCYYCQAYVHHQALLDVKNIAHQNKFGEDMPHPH
method.notes: HDAC6 enzyme activity inhibition (HDAC Fluorimetric Drug Discovery Kit)
Type: biochemical
assay.setup: HDAC1 IC50 / HDAC6 IC50
Description: An experiment was conducted to identify the selectivity of the compound represented by formula I of the present invention to HDAC6 through an experiment on HDAC1 and HDAC6 enzyme activity inhibition. […]
readout.label: HDAC6 selectivity (fold)

Worked examples follow.
compound	endpoint.result
OCc1c(-c2ccccc2)nnn1Cc1ccc(-c2nnc(C(F)F)o2)cn1 [Compound 4478]	437
FC(F)c1nnc(-c2ccc(Cn3nnc(-c4cccs4)n3)nc2)o1 [Compound 4232]	2232

a: CC(C)(C)OC(=O)NC(C)(C)C(=O)Nc1cccc(-c2cn(Cc3ccc(-c4nnc(C(F)F)o4)cn3)nn2)c1 [Compound 4495]
b: FC(F)c1nnc(-c2ccc(Cn3cc(-c4cccc(N5CCN(C6CCC6)CC5)c4)nn3)cc2)o1 [Compound 4371]
HDAC6 selectivity (fold) comparison. Which is larger, a or b ? Answer format: the label of the selected item. a
